Experimental Details: The drug is tested on Bacteroides uniformis strain: ATCC8492 for biotransformation. The drug concentrations were measured before and after a 12-h incubation by liquid-chromatography-coupled mass spectrometry (LC–MS)
Conditions Used: 2 µM
Property: Bacterial Biotransformation

Sample answers from the record:
Compound	Bacterial Biotransformation
O=c1[nH]c2ccccc2n1C1CCN(CCCC(c2ccc(F)cc2)c2ccc(F)cc2)CC1 [PIMOZIDE]	Compound NOT metabolized
O=C1NCC2(CCN(CCc3ccccc3)CC2)O1 [FENSPIRIDE]	Compound metabolized
CC(=O)OCC(CCn1cnc2cnc(N)nc21)COC(C)=O	Compound metabolized
CCc1nc(N)nc(N)c1-c1ccc(Cl)cc1	Compound NOT metabolized

// query Bacterial Biotransformation value for entry CC(=O)CC(c1ccccc1)c1c(O)c2ccccc2oc1=O (stereo not given)
Compound NOT metabolized

For the compound shown here, CCC(C)n1ncn(-c2ccc(N3CCN(c4ccc(OCC5COC(Cn6cncn6)(c6ccc(Cl)cc6Cl)O5)cc4)CC3)cc2)c1=O (stereo not given) , give the reported Bacterial Biotransformation.
Compound NOT metabolized

What value of Bacterial Biotransformation has been recorded for this entry: CN1CCc2c(c3ccccc3n2Cc2ccccc2)C1.CN1CCc2c(c3ccccc3n2Cc2ccccc2)C1.O=S(=O)(O)c1cccc2c(S(=O)(=O)O)cccc12
Compound NOT metabolized

Name the recorded Bacterial Biotransformation for CC#C[C@]1(O)CC[C@H]2[C@@H]3CCC4=CC(=O)CCC4=C3[C@@H](c3ccc(N(C)C)cc3)C[C@@]21C .
Compound NOT metabolized

Entry Cc1cc(C)cc(OCC2CNC(=O)O2)c1 (stereo not given) has what Bacterial Biotransformation?
Compound metabolized

Could you tell me which Bacterial Biotransformation is on file for CSc1ccc2c(c1)C(N1CCN(C)CC1)Cc1ccccc1S2.O=C(O)/C=C\C(=O)O (stereo not given) ?
Compound metabolized

What value of measured Bacterial Biotransformation is listed for O=C(O)COCCN1CCN(C(c2ccccc2)c2ccc(Cl)cc2)CC1 (stereo not given) ?
Compound metabolized

Look up Bacterial Biotransformation: CN1C[C@H](C(=O)N[C@]2(C)O[C@@]3(O)[C@@H]4CCCN4C(=O)[C@H](Cc4ccccc4)N3C2=O)C=C2c3cccc4[nH]cc(c34)C[C@H]21.CN1C[C@H](C(=O)N[C@]2(C)O[C@@]3(O)[C@@H]4CCCN4C(=O)[C@H](Cc4ccccc4)N3C2=O)C=C2c3cccc4[nH]cc(c34)C[C@H]21.O=C(O)C(O)C(O)C(=O)O [ERGOTAMINE TARTRATE]
Compound metabolized

Which Bacterial Biotransformation value is on record for CCCCc1nc(Cl)c(CO)n1Cc1ccc(-c2ccccc2-c2nn[nH]n2)cc1 ?
Compound metabolized

I would be grateful if you could share the reported Bacterial Biotransformation for C[C@@H](CO)NC(=O)[C@@H]1C=C2c3cccc4[nH]cc(c34)C[C@H]2N(C)C1.O=C(O)/C=C\C(=O)O [ERGONOVINE MALEATE] .
Compound metabolized

What value of Bacterial Biotransformation has been recorded for this entry: CC(=O)Nc1ccc(OC(C)=O)cc1 [DIACETAMATE]
Compound metabolized

====

Experimental Details: The drug is tested on Bacteroides ovatus strain: ATCC8483 for biotransformation. The drug concentrations were measured before and after a 12-h incubation by liquid-chromatography-coupled mass spectrometry (LC–MS)
Conditions Used: 2 µM
Property: Bacterial Biotransformation

Compound	Property	Endpoint Result
CCCC(=O)Nc1ccc(OCC(O)CNC(C)C)c(C(C)=O)c1 (stereo not given) [ACEBUTOLOL]	Bacterial Biotransformation	Compound NOT metabolized
CN1CCN2c3ccccc3Cc3ccccc3C2C1 (stereo not given) [MIANSERIN]	Bacterial Biotransformation	Compound NOT metabolized
CNC(=C[N+](=O)[O-])NCCSCc1csc(CN(C)C)n1 [NIZATIDINE]	Bacterial Biotransformation	Compound NOT metabolized
Cc1nc2n(c(=O)c1CCN1CCC(c3noc4cc(F)ccc34)CC1)CCCC2 [RISPERIDONE]	Bacterial Biotransformation	Compound NOT metabolized
CCc1oc2ccccc2c1C(=O)c1cc(Br)c(O)c(Br)c1 [BENZBROMARONE]	Bacterial Biotransformation	Compound NOT metabolized

I would be grateful if you could share the reported Bacterial Biotransformation for Cc1ccc(S(=O)(=O)NC(=O)NN2CC3CCCC3C2)cc1 (stereo not given) [GLICLAZIDE] .
Compound NOT metabolized

Find the recorded Bacterial Biotransformation belonging to CC(N)C12CC3CC(CC(C3)C1)C2 (stereo not given) [RIMANTADINE] and report it.
Compound NOT metabolized

Entry CC(C)C[C@H]1C(=O)N2CCC[C@H]2[C@]2(O)O[C@](NC(=O)[C@@H]3C=C4c5cccc6[nH]c(Br)c(c56)C[C@H]4N(C)C3)(C(C)C)C(=O)N12.CS(=O)(=O)O [BROMOCRIPTINE MESYLATE] : reported Bacterial Biotransformation = ?
Compound metabolized

Bench note: what Bacterial Biotransformation did C[C@H]1O[C@@H](O[C@H]2[C@@H](O)C[C@H](O[C@H]3[C@@H](O)C[C@H](O[C@H]4CC[C@@]5(C)[C@H](CC[C@@H]6[C@@H]5C[C@@H](O)[C@]5(C)[C@@H](C7=CC(=O)OC7)CC[C@]65O)C4)O[C@@H]3C)O[C@@H]2C)C[C@H](O)[C@@H]1O [DIGOXIN] show?
Compound metabolized

Value lookup for Bacterial Biotransformation; key = Cc1ccc(-c2cc(C(F)(F)F)nn2-c2ccc(S(N)(=O)=O)cc2)cc1 [CELECOXIB]
Compound NOT metabolized

Bacterial Biotransformation for COc1ccc(Cc2nccc3cc(OC)c(OC)cc23)cc1OC [PAPAVERINE] ?
Compound NOT metabolized

# get_value(readout='Bacterial Biotransformation', item= CC(=O)OCC(=O)[C@@]1(OC(C)=O)[C@@H](C)C[C@H]2[C@@H]3C[C@H](F)C4=CC(=O)C=C[C@]4(C)[C@@]3(F)[C@@H](O)C[C@@]21C [DIFLORASONE DIACETATE] )
Compound metabolized
